test system: Staphylococcus aureus; assay: Compound was tested for antibacterial activity against MRSA ATCC 33591, expressed as minimum inhibitory concentration (MIC); format: functional
property.name: MIC (µg/mL)

>>> observed_result("CCCCCCCCCCCOC(=O)c1cccc(O)c1")
50
>>> observed_result("CCCCCCCCCOC(=O)c1cc(O)c(O)c(O)c1 [NONYL GALLATE]")
25
>>> observed_result("CCCCCCCCCCCOC(=O)c1cc(O)cc(O)c1")
50
>>> observed_result("CCCCCCCCCCCOC(=O)c1cc(O)c(O)c(O)c1 [UNDECYL GALLATE]")
12.5
>>> observed_result("COc1cccc(OC)c1C(=O)N[C@@H]1C(=O)N2[C@@H]1SC(C)(C)[C@@H]2C(=O)O")
800

P = CCCCCCOC(=O)c1cc(O)c(O)c(O)c1 [HEXYL GALLATE]
Q = CCCCCCCCCCOC(=O)c1cc(O)c(O)c(O)c1 [DECYL GALLATE]
R = CCCOC(=O)c1cc(O)c(O)c(O)c1 [PROPYL GALLATE]
S = CCCCCCCOC(=O)c1cc(O)c(O)c(O)c1 [HEPTYL GALLATE]
### Prompt Descending sort on MIC required. # output: labels, in the requested order
### Response R, P, S, Q
(R: 1600 µg/mL, P: 50 µg/mL, S: 25 µg/mL, Q: 12.5 µg/mL)
